The reported measurements were obtained from patent US8937091B2.

# Tested on: IICR (IP3 induced calcium release) in CHO cells
# experimental.protocol: Assay of IICR (IP3 induced calcium release)-inhibiting action
# Assay type: cell-based, Chinese hamster
# run.parameters: Cricetulus griseus, CHO, test compound 100 μmol; CHO cells, 10 μM ATP; read-out: IICR level (percentage of inhibition)
// -1 strictly below 20% in inhibition at 100 µM; 1 otherwise

Worked cases, answers included:
* CCCCN(CCO)CCC(=O)c1ccncc1 | 1
* CC(C)N(CCC(=O)c1ccccc1)Cc1ccccc1 | 1
* CC(=O)CCN(Cc1ccccc1)C(C)C | -1

Exercise: Evaluate O=C(CCCCl)c1ccncc1 : inhibition at 100 µM at minimum 20%?
Key: -1

Exercise: Evaluate CCCCN(CCC(=O)c1ccc(Cl)s1)Cc1ccccc1 : inhibition at 100 µM at minimum 20%?
Key: -1

* * *

# System: IICR (IP3 induced calcium release) in CHO cells
# experimental.protocol: Assay of IICR (IP3 induced calcium release)-inhibiting action
# Assay type: cell-based, Chinese hamster
# run.parameters: Cricetulus griseus, CHO, test compound 10 μmol; CHO cells, 10 μM ATP; read-out: IICR level (percentage of inhibition)
property.name: inhibition at 10 µM (%)
Only the number, expressed in %, is required.

Exercise: Using the record for CN(CCO)CCC(=O)c1cccs1 [Example 126] , report its inhibition at 10 µM.
Key: 20

Exercise: Using the record for CCN(CCC(=O)c1cnccn1)Cc1ccccc1 [Example 111] , report its inhibition at 10 µM.
Key: 30

* * *

# measurement.target: TGase (Cavia porcellus, UniProt P08587)
# Assay type: biochemical
# run.parameters: test compound 3 μmol; level with DMSO control designated as 100
// NOT MET strictly below 40 in TG level; MET otherwise

Worked cases, answers included:
• O=C(CCNCCSSCCNCCC(=O)c1cccs1)c1cccs1 = MET
• O=C(CCNCCCCNCCC(=O)c1ccc(Br)s1)c1ccc(Br)s1 = MET

Exercise: Evaluate O=C(CCNCCSSCCNCCC(=O)c1ccc2ccccc2c1)c1ccc2ccccc2c1 : TG level at minimum 40?
Key: NOT MET

Exercise: Evaluate O=C(CCNCCSSCCNCCC(=O)c1ccco1)c1ccco1 : TG level at minimum 40?
Key: NOT MET

Exercise: Evaluate O=C(CCNCCSSCCNCCC(=O)c1ccc(Br)s1)c1ccc(Br)s1 : TG level at minimum 40?
Key: NOT MET

Exercise: Evaluate O=C(CCNCCSSCCNCCC(=O)c1ccsc1)c1ccsc1 : TG level at minimum 40?
Key: NOT MET

* * *

# System: SOCE (store operated calcium entry) in CHO cells
# experimental.protocol: Assay of SOCE (store operated calcium entry)-inhibiting action
# Assay type: cell-based, Chinese hamster
# run.parameters: Cricetulus griseus, CHO; Table 1
Each entry below carries its reported IC50.

Please review the following examples before continuing.
- CC(C)N(CCC(=O)c1ccncc1)Cc1ccccc1: > 100 µM
- CC(C)N(CCC(=O)c1cccnc1)Cc1ccccc1: > 100 µM
- CC(C)N(CCO)CCC(=O)c1ccco1: > 100 µM

Exercise: Value wanted: IC50 (SOCE (store operated calcium entry) in CHO cells) of entry CC(C)N(CCC(=O)c1cnccn1)Cc1ccccc1
Key: > 100 µM

Exercise: Value wanted: IC50 (SOCE (store operated calcium entry) in CHO cells) of entry CC(C)(C)N(CCC(=O)c1ccco1)Cc1ccccc1
Key: > 100 µM
